Test system: aspirin ulcer
Assay: Anti-aspirin ulcer test, oral administration
Format: in vivo, Crj:Wistar rat (male)
Conditions: 100 mg/kg oral, 30 min before aspirin 200 mg/kg oral, 6 h; control 76.0
Here, each record is paired with measured Gastric damage index data.

COMPOUND: O=S(=O)(NC(Cc1ccc(O)cc1)CN1CCCN(c2ccccc2)CC1)c1cccc2cnccc12 (stereo not shown) [(6)]
Gastric damage index, mm: 52.9

COMPOUND: COc1ccc(CC(CN2CCC(OCc3ccc(Cl)c(Cl)c3)CC2)N(C)S(=O)(=O)c2cccc3cnccc23)cc1 (stereo not shown) [(9)]
Gastric damage index, mm: 45.4

COMPOUND: O=S(=O)(NC(Cc1ccc(O)cc1)CN1CCN(c2ccccc2)CC1)c1cccc2cnccc12 (stereo not shown) [(1)]
Gastric damage index, mm: 40.1

COMPOUND: COc1ccc(CC(CN2CCCN(C(=O)OCc3ccccc3)CC2)N(CCN)S(=O)(=O)c2cccc3cnccc23)cc1 (stereo not shown) [(15)]
Gastric damage index, mm: 35.8

COMPOUND: CN(C(Cc1ccc(O)cc1)CN1CCN(C(=O)OCc2ccccc2)CC1)S(=O)(=O)c1cccc2cnccc12 (stereo not shown) [(4)]
Gastric damage index, mm: 34.6

COMPOUND: CN(C(Cc1ccc(OS(=O)(=O)c2cccc3cnccc23)cc1)CN1CCC(c2ccccc2)CC1)S(=O)(=O)c1cccc2cnccc12 (stereo not shown) [(10)]
Gastric damage index, mm: 48.3

COMPOUND: O=S(=O)(NC(Cc1ccc(OS(=O)(=O)c2cccc3cnccc23)cc1)CN1CCN(c2ccc(F)cc2)CC1)c1cccc2cnccc12 (stereo not shown) [(3)]
Gastric damage index, mm: 56.7

###

Recorded measurements of Total acidity, one per entry
Test system: gastric juice secretion
Experiment: Anti-gastric juice secretion test, intraperitoneal administration (pylorus ligation)
Assay type: in vivo, Crj:Wistar rat (male)
Details: 100 mg/kg intraperitoneal, 30 min before pylorus ligation; control 208
MEASURE: Total acidity (μEq/100 body weight)

COMPOUND: CN(C(Cc1ccc(O)cc1)CN1CCCN(C(=O)OCc2ccccc2)CC1)S(=O)(=O)c1cccc2cnccc12 (centres unmarked)
ENDPOINT_UNIT: μEq/100 body weight
RECORDED_RESULT: 17

COMPOUND: COc1ccc(CC(CN2CCCN(C(=O)OCc3ccccc3)CC2)N(CCN(C)C)S(=O)(=O)c2cccc3cnccc23)cc1 (centres unmarked)
ENDPOINT_UNIT: μEq/100 body weight
RECORDED_RESULT: 24

COMPOUND: COc1ccc(CC(CN2CCCN(C(=O)OCc3ccccc3)CC2)N(CCN)S(=O)(=O)c2cccc3cnccc23)cc1 (centres unmarked)
ENDPOINT_UNIT: μEq/100 body weight
RECORDED_RESULT: 74

COMPOUND: O=S(=O)(NC(Cc1ccc(O)cc1)CN1CCC(OCc2ccc(Cl)c(Cl)c2)CC1)c1cccc2cnccc12 (centres unmarked)
ENDPOINT_UNIT: μEq/100 body weight
RECORDED_RESULT: 71

COMPOUND: CN(C(Cc1ccc(OS(=O)(=O)c2cccc3cnccc23)cc1)C(=O)N1CCN(c2ccccc2)CC1)S(=O)(=O)c1cccc2cnccc12 (centres unmarked)
ENDPOINT_UNIT: μEq/100 body weight
RECORDED_RESULT: 102
